The origin of these recorded values is patent US8492388B2.

I'd appreciate it if you could supply chromatographic logP values for the items below.
- RUN_DESCRIPTION: Measurement of logP values by HPLC on reversed phase columns (EEC directive 79/831 Annex V.A8)
Lab note: jot the number down without any unit.

Enquiry: Could you share which chromatographic logP value was measured for COCc1cccc(C(=O)N(C)OC)c1 ?
Return: 1.43

Enquiry: And then COCc1cccc(C(=O)c2nnnn2C)c1 , what is it?
Return: 2.01

Enquiry: Do the same for Cn1nnnc1C(=O)c1cccc(OC(F)(F)F)c1 please
Return: 2.96

Enquiry: Can you handle COCc1cccc(C(=NOCc2cccc(NC(=O)OC(C)(C)C)n2)c2nnnn2C)c1 next?
Return: 3.71

Enquiry: Query Cn1nnnc1C(=NOCc1csc(N)n1)c1cccc(OC(F)(F)F)c1 next
Return: 2.1

Enquiry: Continue with CON(C)C(=O)c1cccc(OC(F)(F)F)c1
Return: 2.41

Enquiry: Please answer likewise for Cn1nnnc1C(=NO)c1cccc(OC(F)(F)F)c1
Return: 2.37

Enquiry: Please do the same for Cn1nnnc1C(=NOCc1csc(NC(=O)COc2ccccc2)n1)c1cccc(OC(F)(F)F)c1 as well.
Return: 3.99

Enquiry: Repeat with CN(C)c1cccc(C(=NOCc2cccc(NC(=O)C(F)(F)Oc3ccccc3)n2)c2nnnn2C)c1
Return: 4.14

Enquiry: Request: COCc1cccc(C(=O)O)c1
Return: 1.33

Enquiry: Try this compound too: COC(=O)c1cccc(CCl)c1 [3-(chloromethyl)benzoate, methyl 3-(chloromethyl)benzoate]
Return: 2.64

Enquiry: COCc1cccc(C(=NO)c2nnnn2C)c1 ?
Return: 1.54

###

- RUN_DESCRIPTION: Measurement of logP values by HPLC on reversed phase columns (EEC directive 79/831 Annex V.A8)
- APPLIED_CONDITIONS: pH 2.7
Entry flag: t if chromatographic logP reaches 2; f if it does not.

Enquiry: Hi, just wondering whether Cn1nnnc1C(=NOCc1csc(NC(=O)COc2ccccc2)n1)c1cccc(OC(F)(F)F)c1 [Example 53] shows chromatographic logP of 2 or higher.
Return: t

Enquiry: What would you report for Cn1nnnc1C(=NOCc1csc(N)n1)c1cccc(OC(F)(F)F)c1 [Example 46] ?
Return: t

Enquiry: What would you report for CN(C)c1cccc(C(=NOCc2cccc(N)n2)c2nnnn2C)c1 [Example 22] ?
Return: f

Enquiry: Next compound: CN(C)c1cccc(C(=NOCc2cccc(NC(=O)C(F)(F)Oc3ccccc3)n2)c2nnnn2C)c1 [Example 30]
Return: t

Enquiry: Ok, now COCc1cccc(C(=NOCc2cccc(NC(=O)OC(C)(C)C)n2)c2nnnn2C)c1 [Example 32]
Return: t
